- Tested on: NCI/ADR-RES complex spheroid viability
- experiment.notes: Anticancer human tumor NCI/ADR-RES cell line growth inhibition; active = viability on the fitted dose curve at most 10% of control; inactive = the rest;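 also: spheroids exposed to compounds for 7 days; 100% = DMSO vehicle treated spheroids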
- applied.conditions: second compound 10 µM; first compound 1 µM
- From the text: Multicellular complex tumor spheroid response to LSD1 Inhibitor Iadademstat in combination with a variety of drugs and investigational agents in selected tumor cell lines The current study was undertaken to assess response to LSD1 inhibitors in combination with standard-of-care drugs and investigational agents in solid tumor complex spheroid models as well as in the K-562 leukemia. […] Compounds. […] If the clinical Cmax for an agent had not been determined, the highest concentration tested was 10 microM. […]
Select the correct class. Options are active, inactive and nothing else.

Assay result, entry Nc1ncn(C2CC(O)C(CO)O2)c(=O)n1 (stereo unspecified) + NC1CCC(NC2CC2c2ccccc2)CC1 — outcome?
inactive

Now the molecule CC1(C)CCC(CN2CCN(c3ccc(C(=O)NS(=O)(=O)c4ccc(NCC5CCOCC5)c([N+](=O)[O-])c4)c(Oc4cnc5[nH]ccc5c4)c3)CC2)=C(c2ccc(Cl)cc2)C1 + NC1CC1c1ccc(-c2cccc(O)c2)cc1
inactive

Now the molecule CC1COCCN1c1cc(C2(S(C)(=N)=O)CC2)nc(-c2ccnc3[nH]ccc23)n1 (stereo unspecified) + NC1CCC(NC2CC2c2ccccc2)CC1
inactive

Now the molecule COc1ccc([C@@H](O)c2cc(-c3ncnc4cc(N5CCOCC5)ccc34)c(F)cc2Cl)nn1 + NC1CC1c1ccc(-c2cccc(O)c2)cc1
inactive

Now the molecule O=C(C=Cn1cnc(-c2cc(C(F)(F)F)cc(C(F)(F)F)c2)n1)NNc1cnccn1 + NC1CC1c1ccc(-c2cccc(O)c2)cc1
active

Now the molecule O=C(C=Cn1cnc(-c2cc(C(F)(F)F)cc(C(F)(F)F)c2)n1)NNc1cnccn1 + NC1CCC(NC2CC2c2ccccc2)CC1
active

---

Answer each item with its documented viability, T/C.
- Test system: NCI/ADR-RES complex spheroid viability
- experiment.notes: Anticancer human tumor NCI/ADR-RES cell line growth inhibition;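 also: spheroids exposed to compounds for 7 days; 100% = DMSO vehicle treated spheroids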
- applied.conditions: second compound 10 µM; first compound 0.949 µM; active compounds read low
Numeric only. Scale: %

Please tell me: viability, T/C of CCN(c1cc(-c2ccc(CN3CCOCC3)cc2)cc(C(=O)NCc2c(C)cc(C)[nH]c2=O)c1C)C1CCOCC1 + NC1CC1c1ccc(-c2cccc(O)c2)cc1 , system NCI/ADR-RES complex spheroid viability?
82.7

Now the compound COc1cc(C2c3cc4c(cc3C(OC3OC5COC(C)OC5C(O)C3O)C3COC(=O)C23)OCO4)cc(OC)c1O (stereo not drawn) + NC1CCC(NC2CC2c2ccccc2)CC1
81.6

Now the compound CCN(c1cc(-c2ccc(CN3CCOCC3)cc2)cc(C(=O)NCc2c(C)cc(C)[nH]c2=O)c1C)C1CCOCC1 + NC1CCC(NC2CC2c2ccccc2)CC1
90.1

---

- Test system: NCI/ADR-RES complex spheroid viability
- experiment.notes: Anticancer human tumor NCI/ADR-RES cell line growth inhibition; active = viability on the fitted dose curve at most 10% of control; inactive = the rest;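 also: spheroids exposed to compounds for 7 days; 100% = DMSO vehicle treated spheroids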
- applied.conditions: second compound 1 µM; first compound 1 µM
Select the correct class. Options are Yes for active, No for inactive and nothing else.

Assay result, entry CC1(C)CCC(CN2CCN(c3ccc(C(=O)NS(=O)(=O)c4ccc(NCC5CCOCC5)c([N+](=O)[O-])c4)c(Oc4cnc5[nH]ccc5c4)c3)CC2)=C(c2ccc(Cl)cc2)C1 + NC1CCC(NC2CC2c2ccccc2)CC1 — outcome?
No

Now the molecule COc1ccc([C@@H](O)c2cc(-c3ncnc4cc(N5CCOCC5)ccc34)c(F)cc2Cl)nn1 + NC1CCC(NC2CC2c2ccccc2)CC1
No

Now the molecule CC1COCCN1c1cc(-c2ccnn2C)c2ccnc(-c3ccn[nH]3)c2n1 (stereo unspecified) + NC1CCC(NC2CC2c2ccccc2)CC1
Yes

Now the molecule COc1cc(Nc2ncc3c(n2)-c2ccc(Cl)cc2C(c2c(F)cccc2OC)=NC3)ccc1C(=O)O + NC1CCC(NC2CC2c2ccccc2)CC1
No

Now the molecule O=C(c1cc(Cc2n[nH]c(=O)c3ccccc23)ccc1F)N1CCN(C(=O)C2CC2)CC1 + NC1CC1c1ccc(-c2cccc(O)c2)cc1
No

Now the molecule O=C(C=Cn1cnc(-c2cc(C(F)(F)F)cc(C(F)(F)F)c2)n1)NNc1cnccn1 + NC1CC1c1ccc(-c2cccc(O)c2)cc1
Yes

---

- Test system: NCI/ADR-RES complex spheroid viability
- experiment.notes: Anticancer human tumor NCI/ADR-RES cell line growth inhibition; active = viability on the fitted dose curve at most 10% of control; inactive = the rest;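 also: spheroids exposed to compounds for 7 days; 100% = DMSO vehicle treated spheroids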
- applied.conditions: second compound 0.316 µM; first compound 0.3 µM
Select the correct class. Options are t for active, f for inactive and nothing else.

Assay result, entry Nc1ccn(C2OC(CO)C(O)C2(F)F)c(=O)n1 (configuration not stated) + NC1CC1c1ccc(-c2cccc(O)c2)cc1 — outcome?
t

Now the compound CCN(c1cc(-c2ccc(CN3CCOCC3)cc2)cc(C(=O)NCc2c(C)cc(C)[nH]c2=O)c1C)C1CCOCC1 + NC1CCC(NC2CC2c2ccccc2)CC1
f

Now the compound O=C(C=Cc1cccc(S(=O)(=O)Nc2ccccc2)c1)NO + NC1CCC(NC2CC2c2ccccc2)CC1
f

Now the compound CCc1c2c(nc3ccc(O)cc13)-c1cc3c(c(=O)n1C2)COC(=O)[C@]3(O)CC + NC1CCC(NC2CC2c2ccccc2)CC1
t

Now the compound Nc1ccn(C2OC(CO)C(O)C2(F)F)c(=O)n1 (configuration not stated) + NC1CCC(NC2CC2c2ccccc2)CC1
t

Now the compound Nc1ccccc1NC(=O)c1ccc(CNC(=O)OCc2cccnc2)cc1 + NC1CC1c1ccc(-c2cccc(O)c2)cc1
f

Now the compound CCN(c1cc(-c2ccc(CN3CCOCC3)cc2)cc(C(=O)NCc2c(C)cc(C)[nH]c2=O)c1C)C1CCOCC1 + NC1CC1c1ccc(-c2cccc(O)c2)cc1
f

---

- Tested on: NCI/ADR-RES complex spheroid viability
- experiment.notes: Anticancer human tumor NCI/ADR-RES cell line growth inhibition;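 also: spheroids exposed to compounds for 7 days; 100% = DMSO vehicle treated spheroids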
- applied.conditions: second compound 0.1 µM; first compound 0.001 µM; active compounds read low
- Source text: Multicellular complex tumor spheroid response to LSD1 Inhibitor Iadademstat in combination with a variety of drugs and investigational agents in selected tumor cell lines The current study was undertaken to assess response to LSD1 inhibitors in combination with standard-of-care drugs and investigational agents in solid tumor complex spheroid models as well as in the K-562 leukemia. […] Compounds. […] If the clinical Cmax for an agent had not been determined, the highest concentration tested was 10 microM. […]
endpoint.name: viability, T/C (%)
Numeric only. Scale: %

Given the molecule CC(C)CC(NC(=O)C(Cc1ccccc1)NC(=O)c1cnccn1)B(O)O (stereo not drawn) + NC1CC1c1ccc(-c2cccc(O)c2)cc1 , what is its reported viability, T/C?
102

Now the molecule CC(C)CC(NC(=O)C(Cc1ccccc1)NC(=O)c1cnccn1)B(O)O (stereo not drawn) + NC1CCC(NC2CC2c2ccccc2)CC1
110

Now the molecule Cn1ncnc1C1c2n[nH]c(=O)c3cc(F)cc(c23)NC1c1ccc(F)cc1 (stereo not drawn) + NC1CCC(NC2CC2c2ccccc2)CC1
108

Now the molecule CC(C)CC(NC(=O)CNC(=O)c1cc(Cl)ccc1Cl)B1OC(=O)CC(CC(=O)O)(C(=O)O)O1 (stereo not drawn) + NC1CC1c1ccc(-c2cccc(O)c2)cc1
108

Now the molecule CC[C@@]1(O)C(=O)OCc2c1cc1n(c2=O)Cc2cc3c(CN(C)C)c(O)ccc3nc2-1 + NC1CC1c1ccc(-c2cccc(O)c2)cc1
101

Now the molecule Cn1ncnc1C1c2n[nH]c(=O)c3cc(F)cc(c23)NC1c1ccc(F)cc1 (stereo not drawn) + NC1CC1c1ccc(-c2cccc(O)c2)cc1
104

Now the molecule CC[C@@]1(O)C(=O)OCc2c1cc1n(c2=O)Cc2cc3c(CN(C)C)c(O)ccc3nc2-1 + NC1CCC(NC2CC2c2ccccc2)CC1
97.8

Now the molecule CC(C)CC(NC(=O)CNC(=O)c1cc(Cl)ccc1Cl)B1OC(=O)CC(CC(=O)O)(C(=O)O)O1 (stereo not drawn) + NC1CCC(NC2CC2c2ccccc2)CC1
106

---

- System: NCI/ADR-RES complex spheroid viability
- experiment.notes: Anticancer human tumor NCI/ADR-RES cell line growth inhibition; active = viability on the fitted dose curve at most 10% of control; inactive = the rest;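 also: spheroids exposed to compounds for 7 days; 100% = DMSO vehicle treated spheroids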
- applied.conditions: second compound 1 µM; first compound 0.1 µM
Select the correct class. Options are active, inactive and nothing else.

Assay result, entry CC(C)CC(NC(=O)CNC(=O)c1cc(Cl)ccc1Cl)B1OC(=O)CC(CC(=O)O)(C(=O)O)O1 (configuration not stated) + NC1CCC(NC2CC2c2ccccc2)CC1 — outcome?
active

Now the compound Nc1ncn(C2CC(O)C(CO)O2)c(=O)n1 (configuration not stated) + NC1CCC(NC2CC2c2ccccc2)CC1
inactive

Now the compound CC1COCCN1c1cc(-c2ccnn2C)c2ccnc(-c3ccn[nH]3)c2n1 (configuration not stated) + NC1CCC(NC2CC2c2ccccc2)CC1
active

Now the compound CC(C)CC(NC(=O)C(Cc1ccccc1)NC(=O)c1cnccn1)B(O)O (configuration not stated) + NC1CCC(NC2CC2c2ccccc2)CC1
active

Now the compound O=C(c1cc(Cc2n[nH]c(=O)c3ccccc23)ccc1F)N1CCN(C(=O)C2CC2)CC1 + NC1CC1c1ccc(-c2cccc(O)c2)cc1
inactive

Now the compound CC1(C)CCC(CN2CCN(c3ccc(C(=O)NS(=O)(=O)c4ccc(NCC5CCOCC5)c([N+](=O)[O-])c4)c(Oc4cnc5[nH]ccc5c4)c3)CC2)=C(c2ccc(Cl)cc2)C1 + NC1CC1c1ccc(-c2cccc(O)c2)cc1
inactive

Now the compound CC1COCCN1c1cc(-c2ccnn2C)c2ccnc(-c3ccn[nH]3)c2n1 (configuration not stated) + NC1CC1c1ccc(-c2cccc(O)c2)cc1
active
